Molecular target: Brd4 BD1 (Homo sapiens (Human), UniProt O60885)
Experiment: HTRF evaluation of bromodomain inhibitors, Brd4 BD1
Assay type: binding
Conditions: H4ac4 peptide 50 nM, 4 h at 4° C.
Description: HTRF reagents and buffers were purchased from Cisbio Bioassays. […] Experiments were performed in 384-well white plates (Greiner ref. 781080) and analyzed in a ClarioStar plate reader (BMG LABTECH, excitation at 330 nm and emission at 620 and 665 nm, corresponding to the donor and acceptor emission peaks, respectively; the 665/620 ratio is used to calculate the specific HTRF signal) with an integration delay of 60 μs and an integration time of 400 μs.
Reported IC50 values for a set of compounds

Examples with answers:
compound	testValue
C#CCOCCOCCOCCOCCOCCOCc1cn([C@@H]2c3cc(C(=O)OC)ccc3N(C(C)=O)[C@@H](CC)[C@H]2C)nn1 [XT]	~35000 nM
C#CCOCCOCCOCCOCCOCc1cn([C@@H]2c3cc(C(=O)OC)ccc3N(C(C)=O)[C@@H](CC)[C@H]2C)nn1 [XS]	~30000 nM
CC[C@@H]1[C@H](C)[C@@H](NC(=O)OC(C)C)c2cc(C(=O)OC)ccc2N1C(C)=O [ent-XJ]	> 100000 nM
CC[C@H]1[C@H](C)[C@@H](n2cc(-c3ccccc3)nn2)c2cc(C(=O)OC)ccc2N1C(C)=O [Compound 31]	> 200000 nM

Prompt: State its IC50 for this compound: CC[C@@H]1[C@H](C)[C@@H](Nc2ncc(Cl)cn2)c2cc(C(=O)OC)ccc2N1C(C)=O [ent-XL]
Completion: > 100000 nM
